What TGI was measured for each of the following?
system: T-47D breast; assay: NCI tumour cell line growth inhibition, 48 h

Reported TGI for T-47D breast, given Nc1c(Cl)cc(-c2nc3ccccc3s2)cc1Cl ?
> 100 µM

Reported TGI for T-47D breast, given C#CCNC(=O)NC(CCCCNC(=O)OCc1ccccc1)C(=O)OCc1ccccc1 (configuration not stated) ?
> 32.4 µM

Reported TGI for T-47D breast, given COc1c(CC=C(C)C)c(O)c(C(CC(C)C)c2c(O)c(CC=C(C)C)c(O)c(C(C)=O)c2O)c(O)c1C(C)=O (configuration not stated) ?
16 µM

Reported TGI for T-47D breast, given N#Cc1cccc(Nc2ncc(-c3ccccc3)o2)c1 ?
> 25 µM

Reported TGI for T-47D breast, given CCOC(=O)/C=C/C1(CCOC(C)=O)CCCCC1 ?
> 10 µM

Reported TGI for T-47D breast, given Cc1cn(C2CC(O)C(Cn3nncc3Cn3ncc(=O)[nH]c3=O)O2)c(=O)[nH]c1=O (configuration not stated) ?
> 100 µM

Reported TGI for T-47D breast, given COc1cc(-c2ncn(/C=C\c3nnco3)n2)cc(C(F)(F)F)c1 ?
> 59.9 µM

Reported TGI for T-47D breast, given O=S(=O)(O)c1ccc2cc(N=Nc3c(O)ccc4ccccc34)ccc2c1 ?
> 100 µM

Reported TGI for T-47D breast, given CCN(Cc1ccc(F)cc1)c1ccc(CO)c(C(F)(F)F)c1 ?
10.4 µM

Reported TGI for T-47D breast, given C[C@H]1CN(C2COC2)CCN1c1ccc(Nc2cc(-c3ccnc(N4CCn5c(cc6c5CC(C)(C)C6)C4=O)c3CO)cn(C)c2=O)nc1 ?
> 100 µM

Reported TGI for T-47D breast, given C/C(=N\NC(=S)N1CCN(c2ccccn2)CC1)c1ncccn1 ?
18.5 µM

Reported TGI for T-47D breast, given C=CCNC(=O)CN(CC(=O)OC)C1CCCCC1N(CC(=O)OC)CC(=O)OC (configuration not stated) ?
> 100 µM

* * *

test system: NCI-H522 lung; assay: NCI tumour cell line growth inhibition, 48 h
What TGI was measured for each of the following?

Need TGI of CC1CC(N2CCOCC2)=Nc2ccccc2N1Cc1ccccc1 (configuration not stated) , thanks.
> 100 µM

Need TGI of COc1cc(/C=C/C(=O)O[C@H]2[C@H](O[C@@H]3O[C@@H](C)[C@H](O)[C@@H](O)[C@H]3O)[C@@H](O)[C@H](OCCc3ccc(O)c(O)c3)O[C@@H]2COC2OCC(O)(CO)C2O)ccc1O (some centres not stated) , thanks.
> 100 µM

Need TGI of N#C/C(=C1\OC(=N)C(c2ccc(Cl)cc2Cl)C1=O)c1ccc(Cl)cc1Cl (configuration not stated) , thanks.
> 100 µM

Need TGI of COc1cc(-c2cc(=O)c3ccccc3[nH]2)cc(OC)c1OC , thanks.
> 75 µM

Need TGI of C[C@H]1C[C@H]2[C@@H]3CCC4=CC(=O)C=C[C@]4(C)C3=CC[C@]2(C)[C@@]1(O)C(=O)CO , thanks.
> 100 µM

Need TGI of CC(=O)NCCCCN(CCCNC(C)=O)C(=O)OCc1ccccc1 , thanks.
> 100 µM

Need TGI of O=C(Nc1ccc2[nH]c(C(=O)N3CC(CCl)c4ccc([N+](=O)[O-])cc43)cc2c1)c1cc2ccccc2o1 (configuration not stated) , thanks.
> 1100 µM
